Target: T1, PSMA Fab (006 PSMA Fab) (biotinylated (site not stated))
T1 construct: In the clonal phage ELISA the biotinylated PSMA Fab was captured on neutravidin coated plates; also called Anti-PSMA Fab
Experiment: clonal phage ELISA on biotinylated PSMA Fab captured on neutravidin, anti-M13 HRP detection, no PSMA
Where no end group is shown, it is not given here.
Readings of Phage binding ELISA signal, Anti-PSMA Fab for the listed binders
quantity: Phage binding ELISA signal, Anti-PSMA Fab

> print(dat)
                                     binder  numeric.value
1  DFAMCRPAWMCGGF (cysteine pairing not given here; also: fused to pIII of bacteriophage) [Phage-3372]           1.81
2               QLPMCVPRWMCDGW [Phage-3366]           1.82
3               FEMLCRPIWMCTGF [Phage-3365]           1.82
4               QEIYCVPEWMCSWF [Phage-3375]           1.81
5               DHVMCKPKWMCEGF [Phage-3367]           1.82
6               LSIKCVPDWMCTGF [Phage-3370]           1.81
7               HDLRCVPEWMCYGL [Phage-3377]           1.81
